Sourced from patent US20220064286A1

Target: T1, human TIGIT protein (human, UniProt Q495A1 22-141, limits assumed)
T1 construct: Recombinant protein (Genentech) used in ELISA screening and as SPR analyte; also called TIGIT antigen
T1 sequence: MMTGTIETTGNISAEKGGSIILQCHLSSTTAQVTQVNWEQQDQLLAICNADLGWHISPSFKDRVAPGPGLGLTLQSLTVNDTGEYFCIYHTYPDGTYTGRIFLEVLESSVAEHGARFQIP
Experiment: SPR, captured mAb
Listed next: entries and their corresponding pKd.
Reminder that pKd is minus the log10 of a molar concentration.

stdin: What does the record list as pKd for h6B2.L2H5 (antibody, V domains shown, Fully humanized version; FR/HVR pieces in order) VH: EVTLKESGPALVKPTQTLTLTCTFSGFSLSTYGMGVSWIRQPPGKALEWLASIWWNGNTYYNPSLKSRLTITKDTSKNQVVLTMTNMDPVDTATYYCAHTGGAVITWFAYWGQGTLVTVSS VL: DIQMTQSPSSLSASVGDRVTITCKASQSVGKNIAWYQQKPGKAPKLLIYYASNRYTGVPSRFSGSGSGTDFTFTISSLQPEDIATYYCQHIYNSPYPFGQGTKVEIK ?
stdout: 9.32

stdin: Follow-up item: h15C8.L1H1 (antibody, V domains shown, First humanized version; FR/HVR pieces in order; also called h1.15C8.L1H1) VH: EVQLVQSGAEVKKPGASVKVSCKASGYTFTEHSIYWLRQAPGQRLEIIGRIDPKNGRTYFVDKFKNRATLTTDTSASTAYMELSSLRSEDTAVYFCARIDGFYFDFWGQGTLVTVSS VL: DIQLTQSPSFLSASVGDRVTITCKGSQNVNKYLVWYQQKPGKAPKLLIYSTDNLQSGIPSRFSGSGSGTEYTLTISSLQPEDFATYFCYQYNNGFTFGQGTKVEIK
stdout: 9.41
